Biological target: Neuronal acetylcholine receptor; alpha4/beta2 (Rattus norvegicus, UniProt P09483+P12390)
Sequence (P09483 whole entry): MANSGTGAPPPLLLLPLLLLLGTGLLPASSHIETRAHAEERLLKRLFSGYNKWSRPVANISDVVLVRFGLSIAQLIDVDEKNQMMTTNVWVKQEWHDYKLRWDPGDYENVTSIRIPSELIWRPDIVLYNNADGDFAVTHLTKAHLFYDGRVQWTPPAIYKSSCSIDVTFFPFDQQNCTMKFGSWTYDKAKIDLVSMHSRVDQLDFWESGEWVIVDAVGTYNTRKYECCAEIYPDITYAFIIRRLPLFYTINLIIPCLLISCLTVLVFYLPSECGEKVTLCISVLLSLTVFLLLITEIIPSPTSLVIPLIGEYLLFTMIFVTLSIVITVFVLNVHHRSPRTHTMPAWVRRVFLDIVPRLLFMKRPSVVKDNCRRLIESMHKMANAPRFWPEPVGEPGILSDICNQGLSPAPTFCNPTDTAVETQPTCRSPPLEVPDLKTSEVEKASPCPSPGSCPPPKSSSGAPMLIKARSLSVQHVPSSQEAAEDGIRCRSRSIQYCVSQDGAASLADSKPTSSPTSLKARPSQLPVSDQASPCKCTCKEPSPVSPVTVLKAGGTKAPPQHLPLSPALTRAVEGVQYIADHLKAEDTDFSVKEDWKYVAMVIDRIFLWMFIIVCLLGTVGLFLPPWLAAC
Sequence (P12390 whole entry): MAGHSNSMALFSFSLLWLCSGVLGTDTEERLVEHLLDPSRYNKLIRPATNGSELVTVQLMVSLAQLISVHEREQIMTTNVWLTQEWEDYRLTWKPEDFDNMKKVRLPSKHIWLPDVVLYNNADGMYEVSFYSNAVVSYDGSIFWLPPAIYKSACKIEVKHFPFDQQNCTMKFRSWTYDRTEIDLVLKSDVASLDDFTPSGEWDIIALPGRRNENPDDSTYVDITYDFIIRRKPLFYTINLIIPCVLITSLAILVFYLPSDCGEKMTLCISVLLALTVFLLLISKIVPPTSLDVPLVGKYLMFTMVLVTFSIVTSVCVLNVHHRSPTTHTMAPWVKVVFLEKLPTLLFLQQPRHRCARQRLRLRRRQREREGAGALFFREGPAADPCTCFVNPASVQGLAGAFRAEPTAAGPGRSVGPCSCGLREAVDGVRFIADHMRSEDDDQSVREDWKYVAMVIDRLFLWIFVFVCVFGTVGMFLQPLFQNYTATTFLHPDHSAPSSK
Experiment: Inhibition of rat (alpha4)3(beta2)2 nAChR expressed in Xenopus laevis oocytes assessed as inhibition of 1 mM ACh-induced current by two electrode-electrophysiology method
Assay type: cell-based
measurement_type: IC50 (µM)
Your answer should be a plain number; it is taken to be in µM.

*Q* Output measured IC50 for this item: c1cc2c(cn1)[C@H]1CCCN1CC2
*A* 135

---

Target: Neuronal acetylcholine receptor; alpha4/beta2 (Rattus norvegicus, UniProt P09483+P12390)
Test: Inhibition of rat (alpha4)3(beta2)2 nAChR expressed in Xenopus laevis oocytes assessed as inhibition of 1 mM ACh-induced current by two electrode-electrophysiology method
Format: cell-based
measurement_type: Ki (µM)
Record the value in µM, omitting the unit from your answer.

*Q* Return Ki (reported value) for this molecule: c1cc2c(cn1)[C@H]1CCCN1CC2
*A* 15
